Entry source: ChEMBL document CHEMBL1201862

- System: BJ
- experimentalProtocol: cells
- Assay type: functional, cell-based
- particulars: Homo sapiens
The source made the active and inactive calls. No stated cut-off is given here; in the data, actives have a measured EC50 and inactives only a lower limit.
observationType: EC50

[[record]]
molecule = "CCCCOc1ccc(NC(=O)C(=O)NCCC2=CCCCC2)cc1"
systemundertest = "BJ"
observationtype = "EC50"
measuredvalue = "> 150 µM (not active)"

[[record]]
molecule = "N=c1c2c(-c3ccccc3)c(-c3ccccc3)n(Cc3ccco3)c2ncn1CCCn1ccnc1"
systemundertest = "BJ"
observationtype = "EC50"
measuredvalue = "22.5 µM (active)"

[[record]]
molecule = "Cc1cc2ccccn2c1C(=O)c1cccc([N+](=O)[O-])c1"
systemundertest = "BJ"
observationtype = "EC50"
measuredvalue = "> 150 µM (not active)"

[[record]]
molecule = "COc1ccc(C2=CC(c3ccc(OC)c(OC)c3)c3c(c4ccccc4oc3=O)O2)cc1OC (centres undefined)"
systemundertest = "BJ"
observationtype = "EC50"
measuredvalue = "51.8 µM (active)"

